# STUDY TARGET: EphB4 (Homo sapiens (Human))
# Sequence (P54760 16-987): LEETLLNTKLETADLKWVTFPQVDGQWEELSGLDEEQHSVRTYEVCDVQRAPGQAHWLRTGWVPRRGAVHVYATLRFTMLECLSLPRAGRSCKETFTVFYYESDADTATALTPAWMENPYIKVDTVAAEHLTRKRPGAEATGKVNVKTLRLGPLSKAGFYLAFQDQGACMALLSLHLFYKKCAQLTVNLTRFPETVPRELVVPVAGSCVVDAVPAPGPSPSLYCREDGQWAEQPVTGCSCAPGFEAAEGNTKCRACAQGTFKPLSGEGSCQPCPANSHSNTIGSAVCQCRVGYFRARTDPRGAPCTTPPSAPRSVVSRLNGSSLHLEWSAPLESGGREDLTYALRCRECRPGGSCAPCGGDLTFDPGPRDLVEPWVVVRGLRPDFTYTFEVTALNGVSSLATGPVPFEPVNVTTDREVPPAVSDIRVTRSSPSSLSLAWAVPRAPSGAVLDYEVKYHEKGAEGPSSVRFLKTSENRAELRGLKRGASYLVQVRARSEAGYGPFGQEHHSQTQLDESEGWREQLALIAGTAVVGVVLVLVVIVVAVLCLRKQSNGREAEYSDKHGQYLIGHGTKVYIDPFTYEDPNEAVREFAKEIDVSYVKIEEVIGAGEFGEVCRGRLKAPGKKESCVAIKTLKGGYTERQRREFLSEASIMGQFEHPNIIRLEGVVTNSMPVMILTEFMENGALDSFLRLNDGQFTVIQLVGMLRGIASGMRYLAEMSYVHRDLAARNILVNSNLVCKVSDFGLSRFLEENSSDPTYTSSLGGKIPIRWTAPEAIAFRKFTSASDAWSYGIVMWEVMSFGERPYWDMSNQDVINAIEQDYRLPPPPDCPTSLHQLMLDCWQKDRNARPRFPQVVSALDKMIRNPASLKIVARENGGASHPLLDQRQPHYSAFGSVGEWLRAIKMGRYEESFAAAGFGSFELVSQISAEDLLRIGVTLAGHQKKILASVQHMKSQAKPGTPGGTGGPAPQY
# PROTOCOL DESCRIPTION: KinaseProfiler off-target kinase profiling
# Type: biochemical
# CONDITION DESCRIPTION: 10 μM, ATP near Km
Below, each of the molecules is paired with its reported Avg. POC value.
Lab book: enter the figure in POC, no units written.

* COCc1ccc2c(c1)C(NC(=O)Nc1c(C)c(-c3cnn(C)c3)nn1-c1ccccc1)COC2 (stereo not shown) | 106
* Cc1c(-c2ccc(=O)n(C)c2)nn(-c2ccccc2)c1NC(=O)NC1CN(CC(F)(F)F)Cc2ccccc21 (stereo not shown) | 115
* Cc1c(-c2cnn(C)c2)nn(-c2ccccc2)c1NC(=O)NC1CCOc2cc(F)ccc21 (stereo not shown) | 121

Could you now look at the following molecule, please?
Can you share its Avg. POC? I mean this molecule: Cc1c(-c2cnn(C)c2)nn(-c2ccccc2)c1NC(=O)N[C@H]1CCCc2ccccc21 118.5

---

# STUDY TARGET: MSSK1 (Homo sapiens (Human))
# Sequence (Q9UPE1 whole entry): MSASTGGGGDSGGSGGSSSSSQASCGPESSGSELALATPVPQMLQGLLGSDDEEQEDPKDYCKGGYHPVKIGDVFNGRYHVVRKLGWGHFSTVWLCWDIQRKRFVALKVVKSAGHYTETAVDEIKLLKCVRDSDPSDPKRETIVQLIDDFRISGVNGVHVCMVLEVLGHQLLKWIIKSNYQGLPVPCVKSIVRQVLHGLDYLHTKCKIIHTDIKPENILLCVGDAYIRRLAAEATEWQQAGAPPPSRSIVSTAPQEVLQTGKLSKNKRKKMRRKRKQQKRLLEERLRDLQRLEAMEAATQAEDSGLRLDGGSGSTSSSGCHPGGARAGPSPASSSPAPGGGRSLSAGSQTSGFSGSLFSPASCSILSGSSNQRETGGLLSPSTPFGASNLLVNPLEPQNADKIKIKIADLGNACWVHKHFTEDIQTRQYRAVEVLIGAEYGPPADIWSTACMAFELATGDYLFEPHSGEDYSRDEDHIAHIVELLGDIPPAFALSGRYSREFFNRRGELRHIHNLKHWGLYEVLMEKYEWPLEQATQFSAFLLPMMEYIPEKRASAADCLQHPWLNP
# PROTOCOL DESCRIPTION: KinaseProfiler off-target kinase profiling
# Format: biochemical
# CONDITION DESCRIPTION: 10 μM, ATP near Km
Below, each of the compounds is paired with its reported Avg. POC value.
State the value with its unit after it.

Answered examples (3):
• Cc1c(-c2ccc(=O)n(C)c2)nn(-c2ccccc2)c1NC(=O)NC1CN(CC(F)(F)F)Cc2ccccc21 (stereo not shown) = 120.5 POC
• Cc1c(-c2cnn(C)c2)nn(-c2ccccc2)c1NC(=O)NC1CCOc2cc(F)ccc21 (stereo not shown) = 112.5 POC
• COCc1ccc2c(c1)C(NC(=O)Nc1c(C)c(-c3cnn(C)c3)nn1-c1ccccc1)COC2 (stereo not shown) = 105.5 POC

Could you now look at the following compound, please?
Can you share its Avg. POC? I mean this compound: Cc1c(-c2cnn(C)c2)nn(-c2ccccc2)c1NC(=O)N[C@H]1CCCc2ccccc21 116 POC

---

# STUDY TARGET: Rsk2 (Homo sapiens (Human), UniProt P51812)
# Sequence (P51812 whole entry): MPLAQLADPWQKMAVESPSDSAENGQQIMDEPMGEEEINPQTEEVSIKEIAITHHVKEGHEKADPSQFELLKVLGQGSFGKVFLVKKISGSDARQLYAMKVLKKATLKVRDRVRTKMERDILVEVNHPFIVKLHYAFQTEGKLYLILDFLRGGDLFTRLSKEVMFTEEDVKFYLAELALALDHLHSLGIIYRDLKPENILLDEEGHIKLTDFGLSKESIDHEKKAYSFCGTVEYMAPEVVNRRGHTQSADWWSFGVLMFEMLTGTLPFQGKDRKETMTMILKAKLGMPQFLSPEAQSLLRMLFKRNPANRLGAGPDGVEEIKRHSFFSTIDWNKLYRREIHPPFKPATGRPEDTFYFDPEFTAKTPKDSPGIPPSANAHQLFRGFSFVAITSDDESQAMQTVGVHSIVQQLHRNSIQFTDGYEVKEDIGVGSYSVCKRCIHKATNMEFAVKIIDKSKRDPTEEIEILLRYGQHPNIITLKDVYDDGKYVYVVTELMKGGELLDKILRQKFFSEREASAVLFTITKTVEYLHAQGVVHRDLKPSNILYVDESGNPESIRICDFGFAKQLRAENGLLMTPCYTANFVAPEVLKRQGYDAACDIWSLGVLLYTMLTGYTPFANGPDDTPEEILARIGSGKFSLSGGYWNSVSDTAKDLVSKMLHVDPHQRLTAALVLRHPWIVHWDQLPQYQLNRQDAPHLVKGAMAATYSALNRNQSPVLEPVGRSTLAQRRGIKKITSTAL
# PROTOCOL DESCRIPTION: KinaseProfiler off-target kinase profiling
# Assay type: biochemical
# CONDITION DESCRIPTION: 10 μM, ATP near Km
Below, each of the compounds is paired with its reported Avg. POC value.
Lab book: enter the figure in POC, no units written.

• Cc1c(-c2cnn(C)c2)nn(-c2ccccc2)c1NC(=O)N[C@H]1CCCc2ccccc21 = 137
• Cc1c(-c2ccc(=O)n(C)c2)nn(-c2ccccc2)c1NC(=O)NC1CN(CC(F)(F)F)Cc2ccccc21 (stereo not shown) = 105.5
• COCc1ccc2c(c1)C(NC(=O)Nc1c(C)c(-c3cnn(C)c3)nn1-c1ccccc1)COC2 (stereo not shown) = 92.5

Can you share its Avg. POC? I mean this compound: Cc1c(-c2cnn(C)c2)nn(-c2ccccc2)c1NC(=O)NC1CCOc2cc(F)ccc21 (stereo not shown) 103

---

# STUDY TARGET: Bmx (Homo sapiens (Human), UniProt P51813)
# Sequence (P51813 whole entry): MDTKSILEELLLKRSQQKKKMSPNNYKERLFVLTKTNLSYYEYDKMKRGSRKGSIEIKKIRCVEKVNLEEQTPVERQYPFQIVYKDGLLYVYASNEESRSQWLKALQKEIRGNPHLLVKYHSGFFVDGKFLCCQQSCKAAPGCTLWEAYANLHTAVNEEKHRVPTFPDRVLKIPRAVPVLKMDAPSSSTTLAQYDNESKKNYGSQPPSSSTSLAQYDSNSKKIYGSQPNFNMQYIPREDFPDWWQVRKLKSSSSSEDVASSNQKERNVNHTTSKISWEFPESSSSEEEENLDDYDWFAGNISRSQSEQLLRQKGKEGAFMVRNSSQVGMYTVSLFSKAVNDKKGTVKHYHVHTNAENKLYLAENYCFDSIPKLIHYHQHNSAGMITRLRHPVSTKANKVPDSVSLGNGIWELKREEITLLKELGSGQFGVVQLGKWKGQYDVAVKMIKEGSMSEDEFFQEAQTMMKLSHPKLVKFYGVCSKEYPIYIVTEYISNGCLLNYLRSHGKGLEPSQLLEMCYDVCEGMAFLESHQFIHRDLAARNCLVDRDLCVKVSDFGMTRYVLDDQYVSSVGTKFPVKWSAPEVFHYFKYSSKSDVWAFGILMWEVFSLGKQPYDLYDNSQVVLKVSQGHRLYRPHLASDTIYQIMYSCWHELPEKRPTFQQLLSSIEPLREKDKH
# PROTOCOL DESCRIPTION: KinaseProfiler off-target kinase profiling
# Assay type: biochemical
# CONDITION DESCRIPTION: 10 μM, ATP near Km
# Experimental: Representative compounds (Examples 12, 32, 26 and 2) of the invention were tested for off-target kinase activity at a concentration of 10 μM by Millipore, Inc. in their KinaseProfiler™ service against all the kinases available in their full kinase panel. Compounds were run in duplicate at a concentration of ATP near the Km for each individual kinase according to Millipore's specifications. […]
Below, each of the compounds is paired with its reported Avg. POC value.
Lab book: enter the figure in POC, no units written.

Answered examples (3):
- COCc1ccc2c(c1)C(NC(=O)Nc1c(C)c(-c3cnn(C)c3)nn1-c1ccccc1)COC2 (stereo not shown) [Example 32]: 106.5
- Cc1c(-c2cnn(C)c2)nn(-c2ccccc2)c1NC(=O)N[C@H]1CCCc2ccccc21 [Example 2]: 113
- Cc1c(-c2cnn(C)c2)nn(-c2ccccc2)c1NC(=O)NC1CCOc2cc(F)ccc21 (stereo not shown) [Example 12]: 115.5

Can you share its Avg. POC? I mean this compound: Cc1c(-c2ccc(=O)n(C)c2)nn(-c2ccccc2)c1NC(=O)NC1CN(CC(F)(F)F)Cc2ccccc21 (stereo not shown) [Example 26] 109.5

Data provenance is patent US10351575B2.
